system: MDA-MB-231; assay: Antiproliferative activity against human MDA-MB-231 cells assessed as inhibition of cell growth after 72 hrs by MTT assay; assay type: functional, cell-based; conditions: MDA-MB-231, 72 h
# Lookup of reported IC50 keyed by entry

COc1cc(-c2nc(C(N)=O)cc3cc4c(cc23)OCCO4)cc(I)c1OC | 0.3 µM

Recall and state the measured IC50 for CCOc1cc(-c2nc(C(N)=O)cc3cc4c(cc23)OCCO4)cc(OC)c1OC . 0.48 µM

----------
# Lookup of reported IC50 keyed by entry
tested on: DU-145; experiment: Antiproliferative activity against human DU-145 cells assessed as inhibition of cell growth after 72 hrs by MTT assay; format: functional, cell-based; conditions: DU-145, 72 h
Give just the number in nM; leave the unit off.

COc1c(Br)cc(-c2nc(C(N)=O)cc3cc4c(cc23)OCCO4)cc1Br | 320
COc1cc2c(c(OC)c1OC)-c1ccc(OC)c(=O)cc1[C@@H](NC(C)=O)CC2 [COLCHICINE] | 70

Continue with the next molecule.
Recall and state the measured IC50 for COc1cc(-c2nc(C(N)=O)cc3cc4c(cc23)OCCO4)cc(Cl)c1OC . 270

----------
test: Binding affinity to porcine brain tubulin polymerization assessed as dissociation constant measured after 20 mins by fluorescence based analysis; assay type: tissue-based, Sus scrofa
OUTCOME_MEASURE: Kd (µM)
Give just the number in µM; leave the unit off.

Recall and state the measured Kd for COc1cc(-c2nc(C(N)=O)cc3cc4c(cc23)OCCO4)cc(Br)c1OC . 6.56

----------
test system: MDA-MB-231; experiment: Antiproliferative activity against human MDA-MB-231 cells assessed as inhibition of cell growth after 72 hrs by MTT assay; format: functional, cell-based; conditions: MDA-MB-231, 72 h
# Lookup of reported log10 of IC50 keyed by entry
Record value = log10 of IC50 given in µM.

COc1cc(-c2nc(C(N)=O)cc3cc4c(cc23)OCCO4)cc2c1OCCO2 | -0.12
COc1cc(-c2nc(C(=O)NO)cc3cc4c(cc23)OCCO4)cc(OC)c1OC | 0.20
COc1c(Br)cc(-c2nc(C(N)=O)cc3cc4c(cc23)OCCO4)cc1Br | -0.40
COC(=O)c1cc2cc3c(cc2c(-c2cc(OC)c(OC)c(OC)c2)n1)OCCO3 | 0.51
COc1cc2c(c(OC)c1OC)-c1ccc(OC)c(=O)cc1[C@@H](NC(C)=O)CC2 | -0.92
COc1c(I)cc(-c2nc(C(N)=O)cc3cc4c(cc23)OCCO4)cc1I | -0.14
COc1cc2c(O)c3c(c(-c4ccc5c(c4)OCO5)c2cc1OC)C(=O)OC3 | 0.36

Continue with the next compound.
Recall and state the measured log10 of IC50 for COc1cc(-c2nc(C(N)=O)cc3cc4c(cc23)OCCO4)cc(Br)c1OC . -0.89

----------
# Lookup of reported IC50 keyed by entry
system: PC-3; assay: Antiproliferative activity against human PC-3 cells assessed as inhibition of cell growth after 72 hrs by MTT assay; assay type: functional, cell-based; conditions: PC-3, 72 h

Recall and state the measured IC50 for COc1cc(-c2nc(C(=O)O)cc3cc4c(cc23)OCCO4)cc(OC)c1OC . > 10 µM

Recall and state the measured IC50 for CCOc1c(OC)cc(-c2nc(C(N)=O)cc3cc4c(cc23)OCCO4)cc1OC . > 10 µM

Recall and state the measured IC50 for CCCOc1cc(-c2nc(C(N)=O)cc3cc4c(cc23)OCCO4)cc(OC)c1OC . > 10 µM

Recall and state the measured IC50 for COc1cc(-c2nc(C(N)=O)cc3cc4c(cc23)OCCO4)cc(Br)c1OC . 0.06 µM

----------
test system: PC-3; experiment: Antiproliferative activity against human PC-3 cells assessed as inhibition of cell growth after 72 hrs by MTT assay; type: functional, cell-based; details: PC-3, 72 h
pIC50: −log10 of the molar value.
pIC50 below 6 gives class 0; pIC50 at or above it gives class 1.

Use the examples below as a reference point.
COc1cc(-c2nc(CO)cc3cc4c(cc23)OCCO4)cc(OC)c1OC | class 0
COc1cc(-c2nc(C(N)=O)cc3cc4c(cc23)OCCO4)cc2c1OCCCO2 | class 0
COc1cc(-c2nc(C(N)=O)cc3cc4c(cc23)OCCO4)cc(I)c1OC | class 1
COc1ccc2c(-c3cc(OC)c(OC)c(OC)c3)nc(C(N)=O)cc2c1 | class 0
COc1cc(-c2nc(C(N)=O)cc3cc4c(cc23)OCCO4)cc(Cl)c1OC | class 1
COC(=O)c1cc2cc3c(cc2c(-c2cc(OC)c(OC)c(OC)c2)n1)OCCO3 | class 0
COc1c(Br)cc(-c2nc(C(N)=O)cc3cc4c(cc23)OCCO4)cc1Br | class 1
COc1c(Cl)cc(-c2nc(C(N)=O)cc3cc4c(cc23)OCCO4)cc1Cl | class 1

Entry COc1cc(-c2nc(C(N)=O)cc3cc(OCCCN4CCOCC4)ccc23)cc(OC)c1OC : is its pIC50 no less than 6? class 0

Entry COc1c(I)cc(-c2nc(C(N)=O)cc3cc4c(cc23)OCCO4)cc1I : is its pIC50 no less than 6? class 0

----------
system: DU-145; assay: Antiproliferative activity against human DU-145 cells assessed as inhibition of cell growth after 72 hrs by MTT assay; assay type: functional, cell-based; conditions: DU-145, 72 h
OUTCOME_MEASURE: log10 of IC50 (log10 of the value in µM)
Record value = log10 of IC50 given in µM.

// worked examples, log10 of IC50 included
COc1cc(-c2nc(C(N)=O)cc3cc4c(cc23)OCCO4)cc2c1OCCCO2 | 0.92
CCOc1cc(-c2nc(C(N)=O)cc3cc4c(cc23)OCCO4)cc(OC)c1OC | -0.27
COc1cc(-c2nc(CO)cc3cc4c(cc23)OCCO4)cc(OC)c1OC | 0.16

Recall and state the measured log10 of IC50 for COc1cc(-c2nc(C(N)=O)cc3cc4c(cc23)OCCO4)cc(OC)c1OC . 0.02

Recall and state the measured log10 of IC50 for COc1cc(-c2nc(C(N)=O)cc3cc4c(cc23)OCCO4)cc2c1OCCO2 . 0.19

Recall and state the measured log10 of IC50 for COc1cc(-c2nc(C(N)=O)cc3cc4c(cc23)OCCO4)cc(I)c1OC . -0.52

Recall and state the measured log10 of IC50 for COc1c(Cl)cc(-c2nc(C(N)=O)cc3cc4c(cc23)OCCO4)cc1Cl . -0.31

----------
# Lookup of reported pIC50 keyed by entry
tested on: MDA-MB-231; assay: Antiproliferative activity against human MDA-MB-231 cells assessed as inhibition of cell growth after 72 hrs by MTT assay; format: functional, cell-based; conditions: MDA-MB-231, 72 h
Here pIC50 is given on a logarithmic scale as minus log10 of the concentration in mol/L.

COc1cc(-c2nc(CO)cc3cc4c(cc23)OCCO4)cc(OC)c1OC | 5.87

Recall and state the measured pIC50 for COc1cc(-c2nc(C(N)=O)cc3cc4c(cc23)OCCO4)cc2c1OCO2 . 5.88

Recall and state the measured pIC50 for CCCOc1c(OC)cc(-c2nc(C(N)=O)cc3cc4c(cc23)OCCO4)cc1OC . 5.62

Recall and state the measured pIC50 for COc1cc(-c2nc(C(N)=O)cc3cc4c(cc23)OCCO4)cc(Cl)c1OC . 6.68

----------
molecular target: Tubulin; assay: Inhibition of tubulin polymerization (unknown origin) measured every 60 secs for 60 mins by microplate reader based analysis
OUTCOME_MEASURE: IC50 (µM)
Give just the number in µM; leave the unit off.

Recall and state the measured IC50 for COc1cc(-c2nc(C(N)=O)cc3cc4c(cc23)OCCO4)cc(Br)c1OC . 6.33

----------
test system: DU-145; experiment: Antiproliferative activity against human DU-145 cells assessed as inhibition of cell growth after 72 hrs by MTT assay; type: functional, cell-based; details: DU-145, 72 h
OUTCOME_MEASURE: pIC50
Here pIC50 is given on a logarithmic scale as minus log10 of the concentration in mol/L.

COc1cc(-c2nc(C(N)=O)cc3cc4c(cc23)OCCO4)cc(Br)c1OC | 6.96
CCCOc1c(OC)cc(-c2nc(C(N)=O)cc3cc4c(cc23)OCCO4)cc1OC | 5.79
COc1cc(-c2nc(C(=O)NO)cc3cc4c(cc23)OCCO4)cc(OC)c1OC | 5.71
COc1c(I)cc(-c2nc(C(N)=O)cc3cc4c(cc23)OCCO4)cc1I | 5.49

Recall and state the measured pIC50 for COC(=O)c1cc2cc3c(cc2c(-c2cc(OC)c(OC)c(OC)c2)n1)OCCO3 . 5.68

Recall and state the measured pIC50 for COc1cc(-c2nc(C(N)=O)cc3cc4c(cc23)OCCO4)cc2c1OCO2 . 6.12

Recall and state the measured pIC50 for COc1cc2c(O)c3c(c(-c4ccc5c(c4)OCO5)c2cc1OC)C(=O)OC3 . 6.42
